Provide the recorded inhibition for the entries that follow.
Target Entity: Glucose transporter (Leishmania mexicana)
Measurement Notes: ST_JUDE_LEISH: Cytotoxicity at 2uM final concentration against transgenic Leishmania Mexicana promastigotes LmGT2 that are glucose transport deficient and complemented with the L. Mexicana glucose transporter 2. Activity is measured by DNA content using SYBR green in vitro
Format: functional
Give bare numbers, in %.

# annotated cases, reported inhibition shown
compound=Clc1cccc(C=NNc2nc(=Nc3ccccc3)[nH]c(=Nc3ccccc3)[nH]2)c1 target_entity="Glucose transporter (Leishmania mexicana)" observable=inhibition reading=3.05
compound=Cc1cccc2nc(-c3ccc(-c4ccc(CNCc5cccc(N)c5)cc4)s3)[nH]c12 target_entity="Glucose transporter (Leishmania mexicana)" observable=inhibition reading=2.76

Each compound below has a reported value. Please supply its inhibition.
1. CCc1c(CCNCCCCCCNCCc2ccc([N+](=O)[O-])cc2)ccc(O)c1O
2. Cc1ccc(Nc2nccc(N(C)c3ccc4c(c3)nc(NC(=O)Cc3ccc(Cl)c(Cl)c3)n4C)n2)cc1S(N)(=O)=O
3. O=C(C=CC(=O)N1CCCCC1)NCc1ccccc1
4. CCCNCc1ccc(-c2ccc(CN(CCOC)C(=O)Cc3cccnc3)cc2)nc1

Reply text:
1. 0.31
2. 5.64
3. 2
4. 3.67

Below are some compounds; for each one, tell me its inhibition.
1. Cc1ccc(NC(=S)N2CCCN(CCCCCNC(=O)/C=C/c3ccc(Cl)c(Cl)c3)CC2)cc1Cl
2. CCc1cn2c3c(cc(C(=O)N[C@@H](Cc4cc(F)cc(F)c4)[C@H](O)CNC4CCOCC4)cc13)N(C)S(=O)(=O)CC2
3. Cc1ccc2c(-c3ccc([N+](=O)[O-])o3)cc(C)nc2c1
4. NC(=O)c1ccccc1Nc1nc(Nc2cc[nH]n2)ncc1Cl
5. N#Cc1ccc2c(c1)CCN(CCC1CCC(NC(=O)Nc3ccnc4ccccc34)CC1)C2 (centres undefined)
6. Cc1cc(N[C@@H](CC(C)C)C(=O)NCCc2ccccc2)nc(NCc2ccccc2C)n1

Reply text:
0.36
-0.48
7.05
7.47
1.75
-0.21

For the 2 compounds below, give their inhibition values.
1. O=C(NC1CCN(Cc2ccc3c(c2)OCCO3)CC1)c1ccc(-c2cccc(C(F)(F)F)c2)s1
2. CCCCOc1ccc(-c2nc3ccccc3[nH]2)cc1

Reply text:
2.57
2.74

====

Exercise: state measured inhibition for each of the molecules provided.
Target Entity: Hexose transporter 1 (Plasmodium falciparum) (UniProt O97467)
Measurement Notes: ST_JUDE_LEISH: Cytotoxicity at 2uM final concentration against transgenic Leishmania Mexicana promastigotes LmPfHT that are glucose transport deficient and complemented with the Plasmodium falciparum hexose transporter. Activity is measured by DNA content using SYBR green in vitro
Assay type: functional
Give bare numbers, in %.

Worked cases, answers included:
molecule=Cc1ccc(Nc2nc3cc(N(C)c4ccnc(Nc5cccc(CS(C)(=O)=O)c5)n4)ccc3o2)cc1 target_entity="Hexose transporter 1 (Plasmodium falciparum) (UniProt O97467)" units_symbol=% reading=4.21
molecule="N=c1n(Cc2ccccc2)c2ccccc2n1CC(O)c1ccc(Cl)cc1 (stereo not drawn)" target_entity="Hexose transporter 1 (Plasmodium falciparum) (UniProt O97467)" units_symbol=% reading=2.09
molecule=COc1ccc(CNCc2ccc(-c3cccc(-c4nc5cccc(C)c5[nH]4)c3)cc2)cc1 target_entity="Hexose transporter 1 (Plasmodium falciparum) (UniProt O97467)" units_symbol=% reading=1.37
molecule=N#Cc1cc([N+](=O)[O-])ccc1-n1nc(C(N)=O)n(Cc2cccc(F)c2)c1=S target_entity="Hexose transporter 1 (Plasmodium falciparum) (UniProt O97467)" units_symbol=% reading=8.94
molecule="NC(=O)c1cc(-c2ccccc2)cc2c(C3CCC(NCc4ccccc4)C3)c[nH]c12 (stereo not drawn)" target_entity="Hexose transporter 1 (Plasmodium falciparum) (UniProt O97467)" units_symbol=% reading=1.64

List inhibition for every entry below, keeping the order given.
1. Cc1cccc2nc(-c3ccc(-c4cccc(CN5CCCC5CN)c4)cc3)[nH]c12 (stereo not drawn)
2. CC(C)C(NC(=O)Cc1cccc2ccccc12)C(=O)Nc1cccc(C#N)c1 (stereo not drawn)
3. O=C(/C=C/c1ccc(Cl)c(Cl)c1)NCCCCCN1CCC(NC(=S)Nc2ccc(F)cc2F)CC1
4. C[C@H]1CN(Cc2cccc(-c3cc(CNC(=O)c4cccc(CN5CCN(C/C=C/c6ccccc6)CC5)c4)ccc3F)c2)CCN1
5. Cc1cccc2nc(-c3ccc(-c4ccc(NC(=O)Nc5ccsc5)cc4)cc3)[nH]c12

Reply text:
[1.46, 3.27, 14.9, 10.6, -0.26]

Batch of 8 molecules: report inhibition for each.
1. CCOc1cc(C(=O)N[C@@H](Cc2ccccc2)[C@H](O)CNCc2cc(OC)cc(OC)c2)cc(N2CCCCS2(=O)=O)c1
2. CN1CCC(c2c[nH]c3ccc(NC(=O)Nc4ccc(-c5ccncc5)cc4Cl)cc23)CC1
3. CCC(NC(=O)c1ccccc1NC(=O)c1ccc(C)cc1)C(=O)OC (stereo not drawn)
4. O=C(Nc1cccc(CN2CCCN(Cc3ccc(O)cc3)CC2)c1)c1cc2ccccc2o1
5. COc1ccc(NC(=O)c2ccc(-c3cccc(OCc4ccccc4)c3)cc2)cc1N1CCN(C)CC1
6. COc1cccc(CC(=O)N2CCC(n3c(C)nc4ccc(C)cc43)CC2)c1
7. COc1ccc(CNCc2cccc(-c3cccc(-c4nc5cccc(C)c5[nH]4)c3)c2)cc1
8. CC(C)(C)c1ccc(-c2ccccc2CNC(=O)c2cccc(O)c2)cc1

Reply text:
1: -0.68; 2: 1.38; 3: 0.91; 4: 2.02; 5: 0.6; 6: 1.46; 7: 8.38; 8: 6.5
